test system: IGROV-1; assay: NCI tumour cell line growth inhibition, 48 h
The source made the active and inactive calls. No stated cut-off is given here; in the data, active = GI50 up to about 1.1 µM and inactive = higher.
Hello, when you answer, please use one of the following outcomes: active, inactive

Please review the following examples before continuing.
CN1CCOC1(C)c1ccccc1 (stereo not given) ... inactive
NS(=O)(=O)c1ccc(-c2ccc([As](=O)(O)O)cc2)cc1 ... inactive
CO[C@H]1C[C@H](O[C@H]2CC[C@]3(C=O)[C@H]4CC[C@]5(C)[C@@H](C6=CC(=O)OC6)CC[C@]5(O)[C@@H]4CC[C@]3(O)C2)O[C@H](C)[C@H]1O[C@@H]1O[C@H](CO)[C@@H](O)[C@H](O)[C@H]1O ... active
COc1ccc(-n2cnc3c(NCC(=O)O)ncnc32)cc1 ... inactive
CN(C)c1nc(N(C)C)nc(N(C)C23CC4CC(CC(C4)C2)C3)n1 ... inactive
CCCCCCCCOCC(O)CO (stereo not given) ... inactive
O=c1cc2oc3ccc4ccccc4c3cc-2c(=O)[nH]1 ... inactive
CC(C)(C)OC(=O)NC1CC=CCC1NC(=O)OC(C)(C)C (stereo not given) ... inactive
CC(C)C1CSC2N1C(=O)C2(OCc1ccccc1)C1CC1 (stereo not given) ... inactive
CC(C)C1(O)C(c2ccccc2)=C(c2ccccc2)C(c2ccccc2)=C1c1ccccc1 ... inactive

Request: Per the records of this test, what outcome belongs to Cc1ccc(S(=O)(=O)N/N=C2\CC3CC4CCC2C4C3)cc1 (stereo not given) ?
Result: inactive

Request: Next up: O=C1Nc2nc3ccccc3n2N=C2CCCC12 (stereo not given)
Result: inactive

Request: And what about the compound COc1ccc(/C=C/c2nccc3ccccc23)cc1OC ?
Result: inactive

Request: Also check CC(=C(c1ccccc1)c1ccccc1)N1C(=O)CC(=O)N1C
Result: inactive

Request: Follow-up item: CCN(CC)CCNc1c2ccccc2nc2cccc([N+](=O)[O-])c12
Result: active

---

tested on: NCI-H226; assay: NCI tumour cell line growth inhibition, 48 h
The source made the active and inactive calls. No stated cut-off is given here; in the data, active = GI50 up to about 1.1 µM and inactive = higher.
Items are presented alongside their recorded GI50.

Solved entries:
CC(=O)N1NC(c2ccccc2)=NC(=O)C1c1cc(C)c(O)c(C)c1 (stereo unspecified) ... 23.9 µM (inactive)
COc1ccc2nc3ccc(OC)cc3c(SCCO)c2c1 ... > 61.7 µM (inactive)
Nc1nc(N)c2c(n1)CCC(S(=O)(=O)c1ccc3ccccc3c1)C2 (stereo unspecified) ... 39.3 µM (inactive)
CCOC(=N)CC(=O)c1ccccc1 ... > 100 µM (inactive)

Request: What is its GI50 for NCI-H226? Entry: COc1ccc(-n2cnc3c(NCC(=O)O)ncnc32)cc1
Result: > 100 µM (inactive)

Request: Field entry: CC(NNC(=O)c1ccncc1)c1ccc(Cl)cc1Cl (stereo unspecified)
Result: > 100 µM (inactive)

---

system: K562; assay: NCI tumour cell line growth inhibition, 48 h
Active and inactive are the calls of the source. No stated cut-off is given here; in the data, active = GI50 up to about 1.1 µM and inactive = higher.
Tick one outcome: 1 for active, -1 for inactive

Take a look at these entries with their results.
Cc1cccc(C)c1NC(=O)Nc1ccc(S(N)(=O)=O)cc1 ... -1
CCN(CC)CCC1(C(=O)OC)SCCc2ccc(C)cc21 (stereo unspecified) ... -1
O=C(CNc1ccc2c(=S)c3ccccc3[nH]c2c1)Nc1ccccc1-c1ccccc1NC(=O)CNc1ccc2c(=S)c3ccccc3[nH]c2c1 ... -1

Request: Status in this test for CCCCCCCCCCCCOP(=O)(O)OP(=O)(O)OCC1OC(n2cc(C)c(=O)[nH]c2=O)CC1O (stereo unspecified) ?
Result: -1

Request: And what about the compound O=C(O)c1cc(O)c2c(c1)C([C@@H]1c3cccc(O)c3C(=O)c3c(O)cc(C(=O)O)cc31)c1cccc(O)c1C2=O (stereo partly specified) ?
Result: -1
